Numbers sourced from patent US12312354B2.

# system: BTK (Homo sapiens, UniProt Q06187)
# Sequence (Q06187 whole entry): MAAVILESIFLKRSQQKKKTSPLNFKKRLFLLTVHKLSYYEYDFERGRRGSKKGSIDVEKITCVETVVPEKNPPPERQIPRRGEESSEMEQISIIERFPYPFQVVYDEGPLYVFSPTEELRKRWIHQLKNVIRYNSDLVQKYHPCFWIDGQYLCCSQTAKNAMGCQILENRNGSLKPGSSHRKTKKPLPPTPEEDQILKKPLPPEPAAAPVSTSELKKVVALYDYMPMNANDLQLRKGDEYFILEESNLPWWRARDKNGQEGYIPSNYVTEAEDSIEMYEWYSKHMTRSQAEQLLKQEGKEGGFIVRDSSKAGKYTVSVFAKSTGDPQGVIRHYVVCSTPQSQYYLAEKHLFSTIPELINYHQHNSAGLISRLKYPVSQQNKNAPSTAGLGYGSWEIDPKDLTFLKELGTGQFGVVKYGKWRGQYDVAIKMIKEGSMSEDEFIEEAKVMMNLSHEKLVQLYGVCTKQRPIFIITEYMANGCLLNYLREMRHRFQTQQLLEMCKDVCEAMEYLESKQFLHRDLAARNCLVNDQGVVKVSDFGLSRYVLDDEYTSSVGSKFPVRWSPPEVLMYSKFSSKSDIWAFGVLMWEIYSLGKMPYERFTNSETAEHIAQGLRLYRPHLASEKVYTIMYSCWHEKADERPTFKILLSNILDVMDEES
pIC50: −log10 of the molar value.
quantity_kind: pIC50

[P] C=CC(=O)N1CCC[C@@H](n2c(C)c(-c3ccc(Oc4ccccc4)cc3C)c3c(N)ncnc32)C1 (single isomer, unassigned) [(Ra)-3.1]
[Q] C=CC(=O)N1CCCC(n2nc(-c3c(C)cc(Oc4ccccc4)cc3C)c3c(N)ncnc32)C1 (stereo not drawn) [3.8]
Exercise: Which record would sort first by descending pIC50, P or Q ? Let me know the label of the one you choose.
Key: Q
(Q: 7.43, P: 5.48)

###

pIC50: −log10 of the molar value.
Endpoint: pIC50. System: BLK (Homo sapiens). Items follow.
Sequence (P51451 whole entry): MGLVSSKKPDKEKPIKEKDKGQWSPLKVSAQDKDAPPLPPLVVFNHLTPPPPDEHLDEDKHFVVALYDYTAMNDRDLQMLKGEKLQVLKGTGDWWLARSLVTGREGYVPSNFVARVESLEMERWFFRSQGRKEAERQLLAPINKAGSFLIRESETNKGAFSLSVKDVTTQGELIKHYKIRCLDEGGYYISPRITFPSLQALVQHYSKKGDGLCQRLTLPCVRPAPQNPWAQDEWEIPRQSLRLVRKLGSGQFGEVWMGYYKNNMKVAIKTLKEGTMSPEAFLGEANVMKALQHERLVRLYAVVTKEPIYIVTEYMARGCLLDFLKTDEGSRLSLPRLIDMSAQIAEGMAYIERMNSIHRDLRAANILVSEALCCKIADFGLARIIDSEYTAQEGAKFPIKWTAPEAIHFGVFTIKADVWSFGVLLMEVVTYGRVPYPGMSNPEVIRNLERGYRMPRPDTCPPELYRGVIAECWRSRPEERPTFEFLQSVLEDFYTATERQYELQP
quantity_kind: pIC50

# compound, pIC50
rows = [
    ("C=CC(=O)N1CCC[C@@H](n2c(C)c(-c3ccc(Oc4ccccc4)cc3C)c3c(N)ncnc32)C1 (single isomer, unassigned) [(Ra)-3.1]", 5.74),
]

[I] C=CC(=O)N1CCC[C@H](n2c(C)c(-c3ccc(Oc4ccccc4)cc3C)c3c(N)ncnc32)C1 (single isomer, unassigned) [(Sa)-3.2]
[II] C=CC(=O)N1CCC[C@@H](n2c(C)c(-c3ccc(Oc4ccccc4)cc3C)c3c(N)ncnc32)C1 (single isomer, unassigned) [(Sa)-3.1]
Exercise: Please let me know which one, I or II , has a lower measured pIC50 value. Let me know the label of the one you choose.
Key: II
(II: 5.00, I: 5.76)
